Give PBM E-score for every item shown.
# EXPERIMENTAL TARGET: Hap1 (UniProt P0CE41)
# Sequence (P0CE41 whole entry): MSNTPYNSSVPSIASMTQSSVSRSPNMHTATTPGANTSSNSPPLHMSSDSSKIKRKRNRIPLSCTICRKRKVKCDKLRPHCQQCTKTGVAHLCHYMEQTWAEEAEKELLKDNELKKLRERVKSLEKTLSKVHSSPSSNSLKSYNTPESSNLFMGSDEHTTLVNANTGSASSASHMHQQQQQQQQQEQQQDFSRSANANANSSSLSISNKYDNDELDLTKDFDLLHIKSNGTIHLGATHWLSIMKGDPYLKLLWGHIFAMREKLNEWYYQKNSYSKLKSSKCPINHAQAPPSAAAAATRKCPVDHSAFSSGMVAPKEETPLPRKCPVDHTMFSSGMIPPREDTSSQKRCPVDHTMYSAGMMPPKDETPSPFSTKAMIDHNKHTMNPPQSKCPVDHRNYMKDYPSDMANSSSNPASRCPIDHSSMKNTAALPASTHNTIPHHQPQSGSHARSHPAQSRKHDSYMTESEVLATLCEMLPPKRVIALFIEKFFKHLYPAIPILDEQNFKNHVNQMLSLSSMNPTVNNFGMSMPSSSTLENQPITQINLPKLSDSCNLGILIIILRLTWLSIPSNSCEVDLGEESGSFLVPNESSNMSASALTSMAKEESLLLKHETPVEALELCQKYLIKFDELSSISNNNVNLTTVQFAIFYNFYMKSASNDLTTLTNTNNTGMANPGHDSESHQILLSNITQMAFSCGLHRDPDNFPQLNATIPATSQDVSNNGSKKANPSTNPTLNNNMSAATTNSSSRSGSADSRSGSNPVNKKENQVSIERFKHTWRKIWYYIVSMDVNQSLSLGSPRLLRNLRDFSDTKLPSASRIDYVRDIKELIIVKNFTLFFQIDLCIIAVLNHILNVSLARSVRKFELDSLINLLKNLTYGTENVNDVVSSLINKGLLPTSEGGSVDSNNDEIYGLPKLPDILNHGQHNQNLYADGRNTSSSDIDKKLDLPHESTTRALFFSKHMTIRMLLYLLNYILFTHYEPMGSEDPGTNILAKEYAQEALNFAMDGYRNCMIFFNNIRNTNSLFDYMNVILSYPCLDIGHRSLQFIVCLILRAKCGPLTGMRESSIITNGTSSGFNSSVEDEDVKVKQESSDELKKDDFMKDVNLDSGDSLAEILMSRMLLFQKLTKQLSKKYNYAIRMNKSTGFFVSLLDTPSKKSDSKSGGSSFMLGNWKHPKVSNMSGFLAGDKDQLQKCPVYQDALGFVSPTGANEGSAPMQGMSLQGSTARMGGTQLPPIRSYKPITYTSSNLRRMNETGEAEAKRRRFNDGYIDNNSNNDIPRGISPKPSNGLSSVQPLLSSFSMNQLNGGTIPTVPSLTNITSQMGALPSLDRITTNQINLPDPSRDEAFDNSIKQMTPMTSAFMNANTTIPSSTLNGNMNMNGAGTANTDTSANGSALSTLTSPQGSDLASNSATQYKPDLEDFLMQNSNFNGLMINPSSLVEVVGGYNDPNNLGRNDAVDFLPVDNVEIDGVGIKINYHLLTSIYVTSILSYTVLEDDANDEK
# ASSAY EXPLANATION: PBM E-score (8-mer binding enrichment) (E-score (-0.5 to 0.5)); higher = stronger / more preferred TF binding
# RUN PARAMETERS: protein concentration: 200 nM; construct: GST-DNA-binding domain
In all, about 33,000 sequences were measured (“E-score (-0.5 to 0.5)”: median about -0.053, highest 2% from about 0.37 on). The entries come from a sample that favours the highest values as a whole.
Reply: number alone, nothing else.

I would be grateful if you could share the reported PBM E-score for `AATCCAGT` .
0.219

Recorded PBM E-score of `GGAATTAA` , please.
0.419

# get_value(readout='PBM E-score', item= `CGGAACTA` )
0.436

So what does the record say about PBM E-score for `ATGAAGTG` ?
-0.133

Quick one: PBM E-score of `TATCCGAA` ?
0.364

I am curious: what PBM E-score value has been reported for `GGAATTAC` ?
0.375

Consider the sequence `ACTCCGTA` and give its measured PBM E-score.
0.244

I am curious: what PBM E-score value has been reported for `AGGAAGTA` ?
0.0541

May I ask what PBM E-score has been recorded for `ATCCCAAG` ?
-0.0728

Any idea what PBM E-score was measured for `AAAGTCCG` ?
0.446

Recorded PBM E-score of `CATAAGAC` , please.
0.0262

If you can, please state the reported PBM E-score value of `ACTCCGCA` .
0.156

I'd like to know its PBM E-score. The sequence in question is `AAAGTAAG`
-0.163

Reported PBM E-score for `ACTCCGGA` : what is it?
0.461

Form field: reported PBM E-score of `CATCCGAA`
0.368

Fill in: PBM E-score of `AGGAGTAG` is ___
-0.195

Request the reported PBM E-score associated with `AGATTCGA`
-0.117

Looking for the measured PBM E-score of `AAGCTCAA` , can you help?
-0.167

// query PBM E-score value for entry `CGGAACTC`
0.309

Which PBM E-score reading was recorded for the sequence `CGGAAACA` ?
0.384
